Taken from patent US20250288561A1.

Assay: Phase 1 open-label study: plasma PK of single inhaled nezulcitinib doses under supplemental oxygenation scenarios
Format: in vivo, human
Details: human, plasma, inhaled, 3 mg, Administration C: single 3 mg, oral inhalation, high-flow nasal cannula oxygen 30 L/min; plasma; arithmetic mean; read-out: AUC0-24
readout.type: AUC(0-t) (ng·h/mL)
Answer in ng·h/mL, number only, no unit symbol.

Please give the measured AUC(0-t) for this compound: `CCc1cc(O)ccc1-c1ccc2c(-c3nc4c([nH]3)CN(C(C)C)[C@H](C(=O)N3CC(N(C)C)C3)C4)n[nH]c2c1`
49.9

* * *

Experiment: Phase 1 open-label study: plasma PK of single inhaled nezulcitinib doses under supplemental oxygenation scenarios
Format: in vivo, human
Conditions: human, plasma, inhaled, 3 mg, Administration D1: single 3 mg, oral inhalation, high-flow nasal cannula oxygen 50 L/min; plasma; arithmetic mean; read-out: AUC0-24
Method: Part A: assessed the plasma PK of nezulcitinib following single inhaled doses administered in the setting of various supplemental oxygenation scenarios in healthy participants. This was a Phase 1, open-label, fixed-sequence, 4-period study to evaluate the PK and safety of single inhaled doses of nezulcitinib, administered under different supplemental oxygenation scenarios. […] The following non-compartmental PK parameters were calculated for nezulcitinib, as appropriate: […]
readout.type: AUC(0-t) (ng·h/mL)
Give the value in ng·h/mL but do not write ng·h/mL after it.

What value of measured AUC(0-t) is listed for CCc1cc(O)ccc1-c1ccc2c(-c3nc4c([nH]3)CN(C(C)C)[C@H](C(=O)N3CC(N(C)C)C3)C4)n[nH]c2c1 [Compound 1] ?
47.9
